- STUDY SYSTEM: UniProt:P51449
- Sequence (P51449 whole entry, looked up, the tested form may be a part): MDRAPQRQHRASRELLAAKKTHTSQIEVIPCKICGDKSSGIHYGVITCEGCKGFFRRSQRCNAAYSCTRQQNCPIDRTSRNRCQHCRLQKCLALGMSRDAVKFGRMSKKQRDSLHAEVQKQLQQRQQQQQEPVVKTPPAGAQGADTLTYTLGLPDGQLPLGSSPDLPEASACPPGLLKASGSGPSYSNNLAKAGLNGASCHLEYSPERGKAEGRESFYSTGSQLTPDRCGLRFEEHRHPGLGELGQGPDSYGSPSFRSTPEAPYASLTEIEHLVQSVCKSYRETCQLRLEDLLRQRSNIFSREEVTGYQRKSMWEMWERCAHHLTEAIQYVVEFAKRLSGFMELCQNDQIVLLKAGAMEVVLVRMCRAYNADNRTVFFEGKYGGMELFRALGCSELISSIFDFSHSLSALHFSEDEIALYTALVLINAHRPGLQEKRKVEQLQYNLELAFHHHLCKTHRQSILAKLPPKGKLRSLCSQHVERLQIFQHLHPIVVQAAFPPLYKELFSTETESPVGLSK
- ASSAY NOTES: RORγ Gal4 Reporter Gene Assay
- Assay type: cell-based
OUTCOME MEASURE: pIC50 (REN)

Recorded results for 4 compounds are shown here.
If you can, please state the reported pIC50 (REN) value of CC(C)(O)c1cc(-c2sc(C(=O)N[C@H]3C[C@H](C(=O)O)C3)nc2CC2CCCCC2)cc(C2(C)CC2)c1 .
6.5/7.1/7.1

If you can, please state the reported pIC50 (REN) value of CC(C)(O)CNC(=O)c1nc(CC2CCCCC2)c(-c2ncc(S(=O)(=O)NC(C)(C)C)c3ccccc23)s1 .
6.4/7.7/7.7

If you can, please state the reported pIC50 (REN) value of CC(C)(C)NS(=O)(=O)c1ccc(-c2sc(C(=O)N[C@H]3C[C@H](C(=O)O)C3)nc2CC2CCCCC2)c(C(F)F)c1Cl .
6.5/8.5/8.5

If you can, please state the reported pIC50 (REN) value of CC(C)(O)CNC(=O)c1nc(CC2CCCCC2)c(-c2ccc(S(=O)(=O)NC(C)(C)C)c(Cl)c2OC(F)F)s1 .
6.9/8.2/8.4

***
If you can, please state the reported pIC50 (REN) value of CC(C)(C)c1cc(-c2sc(C(N)=O)nc2CC2CCCCC2)cc(C(C)(C)C)c1 .
6.7/6.3/6.1
